Test system: rabbit red blood cells
Format: cell-based
Conditions: red cells of rabbit, 1 h
Non-standard residues stand in square brackets, D forms with d. Residues, ends and D or L forms follow the SMILES beside them. d2Nal = N[C@H](Cc1ccc2ccccc2c1)C(=O)O; d(hLeu) = CC(C)CC[C@@H](N)C(=O)O
measured.parameter: MHC (minimum hemolytic concentration, lowest concentration causing 10% hemolysis)

QUERY: Request the reported MHC (minimum hemolytic concentration, lowest concentration causing 10% hemolysis) associated with CC(=O)N[C@H](CCCNC(=N)N)C(=O)N[C@H](CCCCN)C(=O)N[C@H](CCC(C)C)C(=O)N[C@H](CCC(C)C)C(=O)N[C@H](Cc1ccc2ccccc2c1)C(=O)N[C@H](CCCNC(=N)N)C(=O)N[C@H](CCC(C)C)C(=O)N[C@H](CCCCN)C(=O)N[C@H](Cc1ccc2ccccc2c1)C(=O)N[C@H](CCCNC(=N)N)C(=O)N[C@H](CCCCN)C(N)=O [LV-14] (Ac-[dR][dK][d(hLeu)][d(hLeu)][d2Nal][dR][d(hLeu)][dK][d2Nal][dR][dK]-NH2)
RESULT: >1000 µg/mL
